Test system: HCoV-OC43 gRNA and sgRNA
Assay type: binding
EXPERIMENTAL_CONDITIONS: type n_48_v; 48 hpi; OC43 Probe II capture on infected cells
MEASURE: target (unweighted spectral count, OC43 Probe II)

molecule="CHTOP (protein, UniProt Q9Y3Y2 2-248, looked up) Chromatin target of PRMT1 …: AAQSAPKVVLKSTTKMSLNERFTNMLKNKQPTPVNIRASMQQQQQLASARNRRLAQQMENRPSVQAALKLKQSLKQRLGKSNIQARLGRPIGALARGAIGGRGLPIIQRGLPRGGLRGGRATRTLLRGGMSLRGQNLLRGGRAVAPRMGLRRGGVRGRGGPGRGGLGRGAMGRGGIGGRGRGMIGRGRGGFGGRGRGRGRGRGALARPVLTKEQLDNQLDAYMSKTKGHLDAELDAYMAQTDPETND" reading=6

State its target (unweighted spectral count, OC43 Probe II): CNBP: host protein, UniProt P62633 (protein, UniProt P62633 2-177, looked up) CCHC-type zinc finger nucleic …: SSNECFKCGRSGHWARECPTGGGRGRGMRSRGRGGFTSDRGFQFVSSSLPDICYRCGESGHLAKDCDLQEDACYNCGRGGHIAKDCKEPKREREQCCYNCGKPGHLARDCDHADEQKCYSCGEFGHIQKDCTKVKCYRCGETGHVAINCSKTSEVNCYRCGESGHLARECTIEATA
19
